# Protocol: Tissue levels after 2-hour IV infusion in rats
# Assay type: in vivo, rat
# Settings: rat testicles; 4 h after end of 2-hour IV infusion, 10 mg/kg
Metric: concentration at 6 h

[[record]]
smiles_record = "NCCC[C@H](N)C(=O)N[C@H](Cc1ccc(C(F)(F)F)cc1)C(=O)Nc1cnc2ccccc2c1"
result = "80 ng/mL"


---

# Protocol: Tissue levels after 2-hour IV infusion in rats
# Assay type: in vivo, rat
# Settings: rat muscle; end of 2-hour IV infusion, 10 mg/kg
# Method: Levels of EPIs in various tissues were evaluated after 2-hour IV infusion in rats. The rats received 10 mg/kg IV infusion through FVC. Animals were divided into 2 groups: group 1 was sacrificed immediately after the end of infusion and group 2, 2 h or 4 h after the end of infusion. Tissues from each animal were collected, homogenized and compounds were extracted. Tissues were mixed with saline at 1:1 ratio (v/w) in 12×75 mm polypropylene round bottom tubes. […]
Catalogue of compounds with associated concentration at 2 h
Metric: concentration at 2 h (µg/mL)

[[record]]
smiles_record = "NCCC[C@@H](N)C(=O)N[C@H](CCc1ccccc1)C(=O)Nc1cnc2ccccc2c1"
metric = "concentration at 2 h"
unit_abbrev = "µg/mL"
numeric_result = 4.54

[[record]]
smiles_record = "NCCC[C@H](N)C(=O)N[C@H](Cc1ccc(C(F)(F)F)cc1)C(=O)Nc1cnc2ccccc2c1"
metric = "concentration at 2 h"
unit_abbrev = "µg/mL"
numeric_result = 4.75

[[record]]
smiles_record = "NCCC[C@H](N)C(=O)N[C@H](CCc1ccccc1)C(=O)Nc1cnc2ccccc2c1"
metric = "concentration at 2 h"
unit_abbrev = "µg/mL"
numeric_result = 2.18


---

Item-by-item account of concentration at 2 h
# Protocol: Tissue levels after 2-hour IV infusion in rats
# Type: in vivo, rat
# Settings: rat lung; end of 2-hour IV infusion, 10 mg/kg
Metric: concentration at 2 h (ng/mL)

[[record]]
smiles_record = "NCCC[C@H](N)C(=O)N[C@H](Cc1ccc(C(F)(F)F)cc1)C(=O)Nc1cnc2ccccc2c1"
metric = "concentration at 2 h"
numeric_result = 13400

[[record]]
smiles_record = "NCCC[C@H](N)C(=O)N[C@H](CCc1ccccc1)C(=O)Nc1ccc2ncccc2c1"
metric = "concentration at 2 h"
numeric_result = 13000

[[record]]
smiles_record = "NCCC[C@H](N)C(=O)N[C@H](CCc1ccccc1)C(=O)Nc1cnc2ccccc2c1"
metric = "concentration at 2 h"
numeric_result = 4270

[[record]]
smiles_record = "NCCC[C@@H](N)C(=O)N[C@H](CCc1ccccc1)C(=O)Nc1cnc2ccccc2c1"
metric = "concentration at 2 h"
numeric_result = 6500


---

# Protocol: Tissue levels after 2-hour IV infusion in rats
# Format: in vivo, rat
# Settings: rat spleen; 2 h after end of 2-hour IV infusion, 10 mg/kg
Metric: concentration at 4 h (ng/mL)

[[record]]
molecule = "NCCC[C@@H](N)C(=O)N[C@H](CCc1ccccc1)C(=O)Nc1cnc2ccccc2c1 [Compound 1]"
unit_abbrev = "ng/mL"
numeric_result = 3710

[[record]]
molecule = "NCCC[C@H](N)C(=O)N[C@H](CCc1ccccc1)C(=O)Nc1cnc2ccccc2c1 [Compound 3]"
unit_abbrev = "ng/mL"
numeric_result = 720

[[record]]
molecule = "NCCC[C@H](N)C(=O)N[C@H](Cc1ccc(C(F)(F)F)cc1)C(=O)Nc1cnc2ccccc2c1 [Compound 21]"
unit_abbrev = "ng/mL"
numeric_result = 4440


---

# Protocol: Acute toxicity, minimal lethal dose after IV bolus in mice
# Type: in vivo, mouse
# Settings: IV bolus into tail vein, lethal for at least one of three mice
# maps each entry to its MLD (minimal lethal dose)
Metric: MLD (minimal lethal dose) (mg/kg)

[[record]]
smiles_record = "NCCC[C@H](NC(=O)C[C@H](N)C(=O)O)C(=O)N[C@H](CCc1ccccc1)C(=O)Nc1cnc2ccccc2c1"
metric = "MLD (minimal lethal dose)"
unit_abbrev = "mg/kg"
numeric_result = 75

[[record]]
smiles_record = "N[C@@H](CC(=O)O)C(=O)NCCC[C@H](N)C(=O)N[C@H](CCc1ccccc1)C(=O)Nc1cnc2ccccc2c1"
metric = "MLD (minimal lethal dose)"
unit_abbrev = "mg/kg"
numeric_result = 50

[[record]]
smiles_record = "N[C@@H](CC(=O)O)C(=O)NCCC[C@H](NC(=O)[C@@H](N)CC(=O)O)C(=O)N[C@H](CCc1ccccc1)C(=O)Nc1cnc2ccccc2c1"
metric = "MLD (minimal lethal dose)"
unit_abbrev = "mg/kg"
numeric_result = 150

[[record]]
smiles_record = "NCCC[C@H](N)C(=O)N[C@H](CCc1ccccc1)C(=O)Nc1cnc2ccccc2c1"
metric = "MLD (minimal lethal dose)"
unit_abbrev = "mg/kg"
numeric_result = 25


---

# Protocol: Tissue levels after 2-hour IV infusion in rats
# Assay type: in vivo, rat
# Settings: rat muscle; 4 h after end of 2-hour IV infusion, 10 mg/kg
Metric: concentration at 6 h (µg/mL)

[[record]]
compound = "NCCC[C@H](N)C(=O)N[C@H](Cc1ccc(C(F)(F)F)cc1)C(=O)Nc1cnc2ccccc2c1 [Compound 21]"
unit_abbrev = "µg/mL"
numeric_result = 1.21


---

# Tested on: P. aeruginosa, PAM1723, overexpressing the MexAB-OprM efflux pump
# Protocol: Levofloxacin potentiation checkerboard assay (broth microdilution)
# Format: cell-based
# Settings: EPI […]
Collected Antibiotic (levofloxacin) MIC in the presence of EPI values appear next to each entry.
Metric: Antibiotic (levofloxacin) MIC in the presence of EPI (µg/mL)

[[record]]
compound = "NCCC[C@@H](N)C(=O)N[C@@H](CCc1ccccc1)C(=O)Nc1cnc2ccccc2c1 [Compound 4]"
measurement_target = "P. aeruginosa, PAM1723, overexpressing the MexAB-OprM efflux pump"
numeric_result = 2

[[record]]
compound = "NCCC[C@@H](N)C(=O)N[C@H](CCc1ccccc1)C(=O)Nc1cnc2ccccc2c1 [Compound 1]"
measurement_target = "P. aeruginosa, PAM1723, overexpressing the MexAB-OprM efflux pump"
numeric_result = 1

[[record]]
compound = "NCCC[C@H](N)C(=O)N[C@H](CCc1ccccc1)C(=O)Nc1cnc2ccccc2c1 [Compound 3]"
measurement_target = "P. aeruginosa, PAM1723, overexpressing the MexAB-OprM efflux pump"
numeric_result = 1

[[record]]
compound = "NCCC[C@H](N)C(=O)N[C@@H](CCc1ccccc1)C(=O)Nc1cnc2ccccc2c1 [Compound 2]"
measurement_target = "P. aeruginosa, PAM1723, overexpressing the MexAB-OprM efflux pump"
numeric_result = 2


---

# Protocol: Tissue levels after 2-hour IV infusion in rats
# Format: in vivo, rat
# Settings: rat spleen; 4 h after end of 2-hour IV infusion, 10 mg/kg
Metric: concentration at 6 h (ng/mL)

[[record]]
compound = "NCCC[C@H](N)C(=O)N[C@H](Cc1ccc(C(F)(F)F)cc1)C(=O)Nc1cnc2ccccc2c1 [Compound 21]"
unit_abbrev = "ng/mL"
numeric_result = 2210


---

# Protocol: Rat serum pharmacokinetics after 2-hour IV infusion
# Assay type: in vivo
# Settings: serum, 2-hour IV infusion, total dose 10 mg/kg, two-compartment model
Metric: clearance (mL/min/kg)

[[record]]
compound = "NCCC[C@H](N)C(=O)N[C@H](CCc1ccccc1)C(=O)Nc1ccc2ncccc2c1 [Compound 7]"
metric = "clearance"
numeric_result = 6.5

[[record]]
compound = "NCCC[C@H](N)C(=O)N[C@H](Cc1ccc(C(F)(F)F)cc1)C(=O)Nc1cnc2ccccc2c1 [Compound 21]"
metric = "clearance"
numeric_result = 16.2

[[record]]
compound = "NCCC[C@@H](N)C(=O)N[C@H](CCc1ccccc1)C(=O)Nc1cnc2ccccc2c1 [Compound 1]"
metric = "clearance"
numeric_result = 24

[[record]]
compound = "NCCC[C@H](N)C(=O)N[C@H](CCc1ccccc1)C(=O)Nc1cnc2ccccc2c1 [Compound 3]"
metric = "clearance"
numeric_result = 23.3


---

Recorded concentration at 6 h by entry
# Protocol: Tissue levels after 2-hour IV infusion in rats
# Type: in vivo, rat
# Settings: rat kidney; 4 h after end of 2-hour IV infusion, 10 mg/kg
Metric: concentration at 6 h (ng/mL)

[[record]]
smiles_record = "NCCC[C@H](N)C(=O)N[C@H](CCc1ccccc1)C(=O)Nc1ccc2ncccc2c1"
unit_abbrev = "ng/mL"
numeric_result = 960

[[record]]
smiles_record = "NCCC[C@H](N)C(=O)N[C@H](Cc1ccc(C(F)(F)F)cc1)C(=O)Nc1cnc2ccccc2c1"
unit_abbrev = "ng/mL"
numeric_result = 2920


---

Examples of molecules with documented concentration at 2 h follow.
# Protocol: Tissue levels after 2-hour IV infusion in rats
# Assay type: in vivo, rat
# Settings: rat kidney; end of 2-hour IV infusion, 10 mg/kg
Metric: concentration at 2 h (µg/mL)

[[record]]
smiles_record = "NCCC[C@H](N)C(=O)N[C@H](CCc1ccccc1)C(=O)Nc1ccc2ncccc2c1"
numeric_result = 55.4

[[record]]
smiles_record = "NCCC[C@H](N)C(=O)N[C@H](Cc1ccc(C(F)(F)F)cc1)C(=O)Nc1cnc2ccccc2c1"
numeric_result = 58.7

[[record]]
smiles_record = "NCCC[C@H](N)C(=O)N[C@H](CCc1ccccc1)C(=O)Nc1cnc2ccccc2c1"
numeric_result = 12.2

[[record]]
smiles_record = "NCCC[C@@H](N)C(=O)N[C@H](CCc1ccccc1)C(=O)Nc1cnc2ccccc2c1"
numeric_result = 49.3

